Target: human PCSK9 (proprotein convertase subtilisin kexin type 9) (human, UniProt Q8NBP7 31-692)
Sequence (Q8NBP7 31-692 limits assumed): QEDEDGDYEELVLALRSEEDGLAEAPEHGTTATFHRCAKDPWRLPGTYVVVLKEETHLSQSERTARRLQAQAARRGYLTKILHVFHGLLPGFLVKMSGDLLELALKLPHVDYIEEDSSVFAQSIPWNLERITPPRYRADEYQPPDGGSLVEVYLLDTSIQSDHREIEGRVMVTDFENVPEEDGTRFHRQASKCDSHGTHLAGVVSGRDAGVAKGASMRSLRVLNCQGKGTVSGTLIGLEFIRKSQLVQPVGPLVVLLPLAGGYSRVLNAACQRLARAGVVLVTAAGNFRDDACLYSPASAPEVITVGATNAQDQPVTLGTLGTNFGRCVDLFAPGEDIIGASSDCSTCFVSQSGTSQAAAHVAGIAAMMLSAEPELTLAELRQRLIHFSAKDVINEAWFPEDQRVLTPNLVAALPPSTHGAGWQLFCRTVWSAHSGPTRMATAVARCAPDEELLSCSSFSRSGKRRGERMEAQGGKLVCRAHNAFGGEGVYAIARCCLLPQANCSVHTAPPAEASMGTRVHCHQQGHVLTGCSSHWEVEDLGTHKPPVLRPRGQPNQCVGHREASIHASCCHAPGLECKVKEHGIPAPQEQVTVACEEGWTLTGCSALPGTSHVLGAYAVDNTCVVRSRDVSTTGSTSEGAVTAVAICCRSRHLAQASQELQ
Assay: cell-based or functional assay
reported metric: LDLR Depletion EC50

stdin: Identify the reported LDLR Depletion EC50 for the following entry. 1784F03-m1 (designed binder) MGVSDVPRDLEVVAATPTSLLISWDAPIHAYGYYRITYGETGGNSPVQEFTVPGSEGTATISGLKPGVDYTITVYAVEYTFKHSGYYHRPISINYRTEIDKPSQHHHHHH
stdout: > 2 µM

stdin: Identify the reported LDLR Depletion EC50 for the following entry. 1459D05 (designed binder, also called ATI000891; ATI-891) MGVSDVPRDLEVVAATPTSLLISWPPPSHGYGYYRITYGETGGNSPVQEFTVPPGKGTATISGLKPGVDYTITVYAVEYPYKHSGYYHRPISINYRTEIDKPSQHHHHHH
stdout: > 0.2 µM

stdin: Identify the reported LDLR Depletion EC50 for the following entry. 1923B02 (designed binder) MGVSDVPRDLEVVAATPTSLLISWTPPPKGYGYYRITYGETGGNSPVQEFTVPVGEGTATISGLKPGVDYTITVYAVEYTYNGAGYYHRPISINYRTEIDKPSQHHHHHH
stdout: 0.023 µM
